- testedTarget: T1, 4H118-bA
- T1 chain: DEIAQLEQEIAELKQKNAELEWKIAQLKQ
- assay: two-hybrid library CCNG1;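 also: natural log of median RNA to DNA barcode read ratio; higher means stronger binding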
Item-by-item account of interaction score
quantityName: interaction score

>>> experimentalvalue("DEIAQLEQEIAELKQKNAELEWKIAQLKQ [4H118-bA]")
1.64
>>> experimentalvalue("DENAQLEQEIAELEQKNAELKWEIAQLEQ [4H1081-bA]")
-0.618
>>> experimentalvalue("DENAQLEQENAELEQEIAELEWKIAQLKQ [4H1158-bA]")
0.591
>>> experimentalvalue("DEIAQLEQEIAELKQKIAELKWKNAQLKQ [4H112-bA]")
-1.17
